- Protocol Description: self-splicing fitness, log relative to wild type (ln ratio); higher = more splicing; Tetrahymena group I intron in knt gene, E. coli kanamycin selection, DiMSum; sequences stand for … in CUCUCU…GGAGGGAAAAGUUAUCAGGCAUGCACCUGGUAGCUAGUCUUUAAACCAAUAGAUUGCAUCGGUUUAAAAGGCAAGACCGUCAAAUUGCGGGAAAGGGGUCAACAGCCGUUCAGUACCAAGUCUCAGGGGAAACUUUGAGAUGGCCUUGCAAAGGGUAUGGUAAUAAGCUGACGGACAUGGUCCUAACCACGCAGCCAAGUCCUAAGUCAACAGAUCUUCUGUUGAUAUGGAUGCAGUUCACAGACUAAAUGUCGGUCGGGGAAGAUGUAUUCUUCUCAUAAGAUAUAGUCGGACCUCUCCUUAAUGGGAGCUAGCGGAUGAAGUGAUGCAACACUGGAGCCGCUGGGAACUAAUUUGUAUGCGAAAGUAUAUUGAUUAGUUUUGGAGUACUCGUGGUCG;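 further: selection with 25 µg/mL kanamycin versus none on LB agar overnight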
- Test Context: 37 °C
So basically: self-splicing fitness (ln) at -0.7 or higher? That is label 1. Lower than -0.7? That is label 0.

sequence_entry=GAGUAGCAAUAUUACGUGUG label="label 0"
sequence_entry=UGUCAGCAAUAUUACGAAUG label="label 1"
sequence_entry=CGGUAGCAAUAUUACGUGUG label="label 1"
sequence_entry=CAUCAGCAAUAUUACGGCAG label="label 1"
sequence_entry=GGUUAGCAAUAUUACGAUAG label="label 0"
sequence_entry=UACGAGCAAUAUUACGACAG label="label 1"
sequence_entry=GUUAAGCAAUAUUACGUUUU label="label 0"
sequence_entry=AAGUAGCAAUAUUACGUUGA label="label 0"
sequence_entry=CGUUAGCAAUAUUACGUCUU label="label 0"
sequence_entry=AUGAAGCAAUAUUACGUACA label="label 1"
sequence_entry=GCUCAGCAAUAUUACGGUGA label="label 0"
sequence_entry=UGGCAGCAAUAUUACGGCGU label="label 1"
sequence_entry=GCGUAGCAAUAUUACGUCAU label="label 0"
sequence_entry=GAGGAGCAAUAUUACGCGCU label="label 0"
sequence_entry=UAGUAGCAAUAUUACGGCAU label="label 1"
sequence_entry=CCGCAGCAAUAUUACGCCAU label="label 0"
